tested on: Caco-2; test: cell viability relative to DMSO; higher = less toxic; conditions: 72 h; 10 nM
VALUE_TYPE: cell viability
A bare number is not enough; add the unit after it.

INPUT: For CCN(c1cc(-c2ccc(CN3CCOCC3)cc2)cc(C(=O)NCc2c(C)cc(C)[nH]c2=O)c1C)C1CCOCC1 [tazemetostat] , what is its reported cell viability?
OUTPUT: 101%

INPUT: For CC(=O)O[C@H]1C[C@@H]2CC[C@@H]3[C@H](CC[C@@]4(C)[C@H]3C[C@H]([N+]3(C)CCCCC3)[C@@H]4OC(C)=O)[C@@]2(C)C[C@@H]1[N+]1(C)CCCCC1 [pancuronium] , what is its reported cell viability?
OUTPUT: 99.9%

INPUT: For CCOc1ccc(-n2c([C@@H](C)N(Cc3cccnc3)C(=O)Cc3ccc(OC(F)(F)F)cc3)nc3ncccc3c2=O)cc1 (racemic) [AMG-487-(+/-)] , what is its reported cell viability?
OUTPUT: 98.2%

INPUT: For `O=C(NCCCCCCNC(=O)ON=C1CCCCC1)ON=C1CCCCC1` , what is its reported cell viability?
OUTPUT: 98.1%

INPUT: For O=C(O)c1ccccc1C(=O)Nc1ccc(S(=O)(=O)Nc2nccs2)cc1 [phthalylsulfathiazole] , what is its reported cell viability?
OUTPUT: 93.9%

INPUT: For CCCC[C@@H](NC(=O)[C@@H](Cc1cn(C(=O)OC)c2ccccc12)NC(=O)[C@H](CC(C)(C)C)NC(=O)N1[C@H](C)CCC[C@@H]1C)C(=O)O [BQ-788] , what is its reported cell viability?
OUTPUT: 104%

INPUT: For c1cncc(CN2CCC(n3ncc4c(N5CCOCC5)nc(-c5ccc6[nH]ccc6c5)nc43)CC2)c1 [WAY-600] , what is its reported cell viability?
OUTPUT: 95.9%

----------
system: HepG2; assay: cell viability relative to DMSO; higher = less toxic; conditions: 72 h; 1 nM
VALUE_TYPE: cell viability (%)
Value expressed in %; do not type the unit.

INPUT: For `O=c1[nH]c(CCl)nc2sc3c(c12)CCCC3` , what is its reported cell viability?
OUTPUT: 92.7

INPUT: For Nc1ncnc2c1nc(Br)n2[C@@H]1O[C@@H]2COP(=O)(O)O[C@H]2[C@H]1O [8-bromo-cAMP] , what is its reported cell viability?
OUTPUT: 95.2

INPUT: For CCCCCCCCCCCC(=O)N(CCO)CCO [lauric-diethanolamide] , what is its reported cell viability?
OUTPUT: 94

INPUT: For Oc1cc2c(cc1O)[C@H](Cc1cccc3ccccc13)NCC2 [CKD-712] , what is its reported cell viability?
OUTPUT: 106

INPUT: For `COc1cc2ncnc(Nc3cccc(Br)c3)c2cc1OC` , what is its reported cell viability?
OUTPUT: 103

----------
system: U2OS; test: relative viability EC50 (midpoint between 100% and the lowest measured viability); higher = less toxic; conditions: 72 h
Please provide measured relative viability EC50 for the entries that follow.

INPUT: For `C#Cc1cnc2nc(O)n(C(CC)CC)c2n1` , what is its reported relative viability EC50?
OUTPUT: > 10 µM

INPUT: For OC[C@H]1O[C@@H](OCCc2ccc(O)cc2)[C@H](O)[C@@H](O)[C@@H]1O [salidroside] , what is its reported relative viability EC50?
OUTPUT: > 10 µM

INPUT: For `O=C1N(c2ccccc2)c2ccccc2C1(Cc1ccncc1)Cc1ccncc1` , what is its reported relative viability EC50?
OUTPUT: > 10 µM

INPUT: For `C=C1/C(=C\C=C2/CCC[C@]3(C)[C@@H]([C@H](C)CCCC(C)(C)O)CC[C@@H]23)C[C@@H](O)C[C@@H]1O` , what is its reported relative viability EC50?
OUTPUT: > 10 µM

INPUT: For `O=C1CC[C@@H](C(=O)N2CSC[C@H]2C(=O)O)N1` , what is its reported relative viability EC50?
OUTPUT: > 10 µM

INPUT: For `Cc1cc(N2CCOCC2)cc2[nH]c(-c3c(NC[C@@H](O)c4cccc(Cl)c4)cc[nH]c3=O)nc12` , what is its reported relative viability EC50?
OUTPUT: 1.45 µM

INPUT: For `C[C@H]1N=C(N(C)C)N=C(N)N1` , what is its reported relative viability EC50?
OUTPUT: > 10 µM

INPUT: For `C[C@H]1CCc2c(cc(Br)c(F)c2Br)N1C=O` , what is its reported relative viability EC50?
OUTPUT: > 10 µM

INPUT: For `O=C1C(O)=C(O)C(=O)C(O)=C1O` , what is its reported relative viability EC50?
OUTPUT: > 10 µM

INPUT: For C[N+]1(C)CCc2cc3c(cc2[C@H]1[C@@H]1OC(=O)c2c1ccc1c2OCO1)OCO3 [bicuculline-methochloride-(-)] , what is its reported relative viability EC50?
OUTPUT: > 10 µM

INPUT: For N[C@@H](C(=O)O)c1cc(O)cc(O)c1 [dihydroxyphenylglycine] , what is its reported relative viability EC50?
OUTPUT: > 10 µM

----------
tested on: Caco-2; assay: cell viability relative to DMSO; higher = less toxic; settings: 72 h; 10 nM
VALUE_TYPE: cell viability (%)
Value expressed in %; do not type the unit.

INPUT: For CCNC1=Nc2ccc(Cl)cc2C(C)(c2ccccc2)O1 (stereo not given) , what is its reported cell viability?
OUTPUT: 102

INPUT: For `C[C@@H](CN)CC(=O)O` , what is its reported cell viability?
OUTPUT: 94.9

INPUT: For `C[C@H](NC(=O)CNC(=O)c1cccc(Cl)c1)c1ccccc1` , what is its reported cell viability?
OUTPUT: 102

INPUT: For `C[C@H]1CC[C@H](n2c3cnccc3c3cnc(Nc4ccc5c(n4)CCN(C(=O)CO)C5)nc32)CC1` , what is its reported cell viability?
OUTPUT: 95.5

INPUT: For `N#C/C(=C\c1ccc(O)cc1)C(=O)O` , what is its reported cell viability?
OUTPUT: 98.5

INPUT: For `COc1ccc(C(=O)c2ccccc2)c(O)c1` , what is its reported cell viability?
OUTPUT: 94.4

INPUT: For CC1(C)[C@@H]2C[C@@H](O)[C@@](C)(O)[C@H]1C2 [2,3-cis/exo-pinanediol] , what is its reported cell viability?
OUTPUT: 101

INPUT: For CCOc1ccccc1C(N)=O [ethenzamide] , what is its reported cell viability?
OUTPUT: 97

INPUT: For `O=C(Nc1cccnc1)c1cc(-c2ccnc(F)c2)ccc1OCc1ccccc1` , what is its reported cell viability?
OUTPUT: 110

INPUT: For `CC(=O)NCC(=O)N1[C@@H]2CC[C@H]1c1ccc(Nc3ncc(C(F)(F)F)c(NC4CCC4)n3)cc12` , what is its reported cell viability?
OUTPUT: 89.2

----------
system: Calu-3; experiment: cell viability relative to DMSO; higher = less toxic; settings: 72 h; 1000 nM
Please provide measured cell viability for the entries that follow.
A bare number is not enough; add the unit after it.

INPUT: For Cc1cc(=O)n(-c2ccccc2)[nH]1 [N-demethylantipyrine] , what is its reported cell viability?
OUTPUT: 97%

INPUT: For `O=C(O)Cc1ccc(OCCNC[C@H](O)c2ccccc2)cc1` , what is its reported cell viability?
OUTPUT: 98%

INPUT: For `C[C@]12CC[C@H](O)C[C@H]1CC[C@@H]1[C@@H]2CC[C@]2(C)[C@@H](c3ccc(=O)oc3)C[C@H]3O[C@]132` , what is its reported cell viability?
OUTPUT: 99.4%

INPUT: For Nc1ccccc1S(N)(=O)=O [2-aminobenzenesulfonamide] , what is its reported cell viability?
OUTPUT: 104%

INPUT: For C/C(=C\C(N)C(=O)O)CP(=O)(O)O (centres undefined) , what is its reported cell viability?
OUTPUT: 96.2%

INPUT: For CNC(=O)ON(C(C)=O)C(=O)NC [caracemide] , what is its reported cell viability?
OUTPUT: 101%

INPUT: For `O=C(O)c1ccccc1C(=O)Nc1ccc(S(=O)(=O)Nc2nccs2)cc1` , what is its reported cell viability?
OUTPUT: 107%

INPUT: For O=C1CC2(CCCC2)CC(=O)N1CCCCNC[C@H]1COc2ccccc2O1 (racemic) , what is its reported cell viability?
OUTPUT: 94.2%

INPUT: For `O=C(COc1cccc2c(=O)[nH]ccc12)c1ccccc1` , what is its reported cell viability?
OUTPUT: 96.8%

----------
Please provide measured cell viability for the entries that follow.
test system: HepG2; assay: cell viability relative to DMSO; higher = less toxic; settings: 72 h; 100 nM
Value expressed in %; do not type the unit.

INPUT: For CC(=O)O[C@H]1C[C@@H]2CC[C@@H]3[C@H](CC[C@@]4(C)[C@H]3C[C@H]([N+]3(C)CCCCC3)[C@@H]4OC(C)=O)[C@@]2(C)C[C@@H]1[N+]1(C)CCCCC1 [pancuronium] , what is its reported cell viability?
OUTPUT: 101

INPUT: For Nc1nc(=O)n([C@H]2C[C@H](O)[C@@H](CO)O2)cc1F [fdcyd] , what is its reported cell viability?
OUTPUT: 60.1

INPUT: For CC(C)(C)NC(=O)N[C@H](C(=O)N1C[C@H]2[C@@H]([C@H]1C(=O)NC(CC1CCC1)C(=O)C(N)=O)C2(C)C)C(C)(C)C (some centres undefined) [Boceprevir] , what is its reported cell viability?
OUTPUT: 95.6

INPUT: For O=C(O)C1=CCNCC1 [isoguvacine] , what is its reported cell viability?
OUTPUT: 91.9

FYI, the data here is from the supplement of paper PMC13380429.
